I'd be grateful if you could share measured kon for these entries.
# EXPERIMENTAL_SYSTEM: T1, Rat GDF15 HIS: HIS-tagged rat GDF15 (rat, UniProt Q9Z0J6 189-303, limits assumed)
# T1 construct: also called Rat His-GDF15; not shown: His tag
# T1 sequence (looked up): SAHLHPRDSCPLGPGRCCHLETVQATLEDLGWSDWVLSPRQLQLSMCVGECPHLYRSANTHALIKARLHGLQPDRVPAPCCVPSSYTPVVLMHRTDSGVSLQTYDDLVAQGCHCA
# ASSAY_PROCEDURE: Biacore SPR, IgG captured via anti-human Fc, GDF15 in flow
Kindly answer with a numeric value in M⁻¹ s⁻¹, unit omitted.

Task: Quick check: kon of ABGDF15-G (antibody, human IgG1, kappa, V domains shown, captured through anti-human Fc in the Biacore assay) VH: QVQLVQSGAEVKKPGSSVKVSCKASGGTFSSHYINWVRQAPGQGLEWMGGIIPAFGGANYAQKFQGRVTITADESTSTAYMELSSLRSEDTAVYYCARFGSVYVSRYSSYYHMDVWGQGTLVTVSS VL: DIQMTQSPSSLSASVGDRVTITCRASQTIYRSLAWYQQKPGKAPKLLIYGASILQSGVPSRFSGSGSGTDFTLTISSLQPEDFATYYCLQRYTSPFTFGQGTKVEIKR ?
Result: 2.63e+06

Task: Quick check: kon of ABGDF15-F (antibody, human IgG1, lambda, V domains shown, captured through anti-human Fc in the Biacore assay) VH: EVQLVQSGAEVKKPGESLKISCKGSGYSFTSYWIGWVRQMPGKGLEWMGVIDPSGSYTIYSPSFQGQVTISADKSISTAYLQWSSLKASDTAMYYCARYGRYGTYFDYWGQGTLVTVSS VL: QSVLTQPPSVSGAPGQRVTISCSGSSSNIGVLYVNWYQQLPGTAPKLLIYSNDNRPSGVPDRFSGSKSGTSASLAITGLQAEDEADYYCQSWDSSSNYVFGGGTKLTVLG ?
Result: 1.11e+07

Task: Quick check: kon of ABGDF15-A (antibody, human IgG1, kappa, V domains shown, captured through anti-human Fc in the Biacore assay) VH: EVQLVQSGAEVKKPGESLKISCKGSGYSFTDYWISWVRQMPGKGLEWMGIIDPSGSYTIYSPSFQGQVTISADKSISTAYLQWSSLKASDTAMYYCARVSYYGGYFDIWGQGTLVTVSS VL: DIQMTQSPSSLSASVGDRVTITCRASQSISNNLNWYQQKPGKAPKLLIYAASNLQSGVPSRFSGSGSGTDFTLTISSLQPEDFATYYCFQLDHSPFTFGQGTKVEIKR ?
Result: 1.95e+07

Task: Quick check: kon of ABGDF15-B (antibody, human IgG1, lambda, V domains shown, captured through anti-human Fc in the Biacore assay) VH: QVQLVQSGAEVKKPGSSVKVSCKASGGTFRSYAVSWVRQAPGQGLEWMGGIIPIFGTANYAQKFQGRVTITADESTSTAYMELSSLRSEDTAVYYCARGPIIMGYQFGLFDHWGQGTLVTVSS VL: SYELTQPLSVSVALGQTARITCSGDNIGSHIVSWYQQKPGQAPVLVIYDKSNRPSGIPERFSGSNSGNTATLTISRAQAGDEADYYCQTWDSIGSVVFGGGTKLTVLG ?
Result: 5.36e+06

Task: Quick check: kon of ABGDF15-C (antibody, human IgG1, lambda, V domains shown, captured through anti-human Fc in the Biacore assay) VH: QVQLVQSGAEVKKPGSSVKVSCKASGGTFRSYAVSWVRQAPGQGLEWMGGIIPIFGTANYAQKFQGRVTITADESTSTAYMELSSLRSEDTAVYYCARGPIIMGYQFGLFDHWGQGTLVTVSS VL: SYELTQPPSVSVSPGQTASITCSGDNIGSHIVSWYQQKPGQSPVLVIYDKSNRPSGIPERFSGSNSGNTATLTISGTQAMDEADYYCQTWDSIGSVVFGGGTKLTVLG ?
Result: 7.81e+06

Task: Quick check: kon of ABGDF15-E (antibody, human IgG1, lambda, V domains shown, captured through anti-human Fc in the Biacore assay) VH: EVQLVQSGAEVKKPGESLKISCKGSGYSFTSYWIGWVRQMPGKGLEWMGVIDPGGSYTIYSPSFQGQVTISADKSISTAYLQWSSLKASDTAMYYCARYGRYGTYFDYWGQGTLVTVSS VL: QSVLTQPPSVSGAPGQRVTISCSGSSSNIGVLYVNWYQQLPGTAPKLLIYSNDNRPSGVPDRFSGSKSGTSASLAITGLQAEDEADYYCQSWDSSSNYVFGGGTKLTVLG ?
Result: 1.08e+07

Task: Quick check: kon of ABGDF15-D (antibody, human IgG1, lambda, V domains shown, captured through anti-human Fc in the Biacore assay) VH: EVQLVQSGAEVKKPGESLKISCKGSGYSFTSYWIGWVRQMPGKGLEWMGVIDPDGSYTIYSPSFQGQVTISADKSISTAYLQWSSLKASDTAMYYCARYGRYGTYFDYWGQGTLVTVSS VL: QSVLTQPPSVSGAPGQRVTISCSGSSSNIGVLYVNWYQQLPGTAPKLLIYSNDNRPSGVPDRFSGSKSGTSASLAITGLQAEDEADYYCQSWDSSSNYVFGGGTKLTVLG ?
Result: 1.62e+07
